Source of measurements: patent US20250019387A1

- target-system: KRAS G12C and cRAF (Ras-binding domain) interaction (Homo sapiens (Human), UniProt P01116, C118S/C51S/C80L/G12C)
- Sequence (P01116 other isoform, or with tags, fused parts or gaps G12C/C51S/C80L/C118S): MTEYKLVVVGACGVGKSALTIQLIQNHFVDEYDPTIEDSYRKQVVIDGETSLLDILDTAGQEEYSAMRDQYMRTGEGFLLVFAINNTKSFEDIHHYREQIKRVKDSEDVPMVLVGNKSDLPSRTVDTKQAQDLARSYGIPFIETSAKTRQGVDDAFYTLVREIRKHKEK
- procedure-summary: Inhibition of KRAS G12C and cRAF binding (AlphaScreen)
- applied-conditions: additional exemplary compounds; KRAS G12C and cRAF binding; read-out: RAF1 RBD IC50
quantity-name: IC50

Worked examples, 2 compounds total:
C=CS(=O)(=O)CCN(C)c1nc(OC[C@@H]2CCCN2C)nc2c1CCN(c1cccc3ccc(F)c(Cl)c13)C2 ... 100 to 500 nM
C=CC(=O)N1C[C@H](N(C)c2nc(OC[C@@]34CCCN3C[C@H](F)C4)nc3c(F)c(-c4cccc5cccc(Cl)c45)ncc23)C[C@H]1CC#N ... 10 to 100 nM

INPUT: Which IC50 value belongs to CN(CC1CN(C#N)C1)c1nc(OCC23CCCN2CCC3)nc2c1CCN(c1cccc3cccc(Cl)c13)C2 ?
OUTPUT: 100 to 500 nM

INPUT: Cc1nccc(/C=C/C(=O)N2CC3(CCN(c4nc(OC[C@@]56CCCN5C[C@H](F)C6)nc5c(F)c(-c6cccc7cccc(Cl)c67)ncc45)C3)C2)n1 , same question.
OUTPUT: > 500 nM

INPUT: C=CC(=O)CCN(C)c1nc(OCC2CCN2C)nc2c1CCN(c1cccc3cccc(Cl)c13)C2 (stereo not shown) , same question.
OUTPUT: 10 to 100 nM

INPUT: C=CS(=O)(=O)CCN(C)c1nc(OC[C@@H]2CCCN2C)nc2c(F)c(-c3cccc4cccc(Cl)c34)ncc12 , same question.
OUTPUT: 100 to 500 nM

INPUT: C=CC(=O)N1CC[C@@H](F)[C@@H](N(C)c2nc(OC[C@@]34CCCN3C[C@H](F)C4)nc3c(F)c(-c4cccc5cccc(Cl)c45)ncc23)C1 , same question.
OUTPUT: > 500 nM
